Procedure Text: Apparent clearance in Sprague-Dawley rat at 25 mg/kg, po measured upto 24 hrs by LC-MS/MS method
Assay type: ADME, organism-based
Stated Conditions: in vivo, read-out: CL(app) (converted)
Property Name: CL/F (L/h/kg)
State just the number; it will be interpreted in L/h/kg.

Query O=C(O)[C@@H]1[C@H](C(=O)n2ccc3ccccc32)[C@H]2CC[C@@H]1O2 yields CL/F of 0.462

* * *

Procedure Text: Stability of compound in stimulated intestinal fluid assessed as remaining compound after 24 hrs by HPLC method
Assay type: ADME
Stated Conditions: simulated intestinal fluid, read-out: Stability
Property Name: remaining at 24 h (%)
Give a bare numeral; the unit % is implied.

// O=C(O)[C@@H]1[C@H](C(=O)n2ccc3ccccc32)[C@H]2CC[C@@H]1O2 : remaining at 24 h value = 96

* * *

Procedure Text: Aqueous stability of compound assessed as compound remaining measured at 480 mins by HPLC assay
Format: physicochemical
Stated Conditions: aqueous solution, read-out: Stability
Property Name: remaining at 8 h

So for CN1CCN(C(=O)[C@@H]2[C@H](C(=O)O)[C@H]3CC[C@@H]2O3)CC1 , the logged remaining at 8 h turned out to be 14%

* * *

Procedure Text: Stability of compound in stimulated gastric fluid assessed as remaining compound after 24 hrs by HPLC method
Assay type: ADME
Stated Conditions: simulated gastric fluid, read-out: Stability
Property Name: remaining at 24 h (%)
Quick reminder: number only, in %, skip the unit.

So for O=C(O)[C@@H]1[C@H](C(=O)n2ccc3ccccc32)[C@H]2CC[C@@H]1O2 , the logged remaining at 24 h turned out to be 92

* * *

Procedure Text: MRT(0 to infinity) in Sprague-Dawley rat at 5 mg/kg, iv measured upto 24 hrs by LC-MS/MS method
Type: ADME, organism-based
Stated Conditions: in vivo
Property Name: MRT inf (h)
Give the number; h is assumed, so skip it.

The compound identified as O=C(O)[C@@H]1[C@H](C(=O)n2ccc3ccccc32)[C@H]2CC[C@@H]1O2 registered its MRT inf at 5.52

* * *

Procedure Text: Inhibition of PP2A (unknown origin)
Starred links: 1 amine or outer side, 2 acyl side, 3 side chain; linkers in the order of their positions; H or OH if unused. Positions of bridges follow the written chain, without caps; N, C: chain ends. Non-standard residues stand in square brackets, D forms with d. Residues, ends and D or L forms follow the SMILES beside them. Adda = CO[C@@H](Cc1ccccc1)[C@@H](C)/C=C(C)/C=C/[C@H](N[*:1])[C@H](C)C(=O)[*:2]; dAsp(3S-Me) = C[C@H](C(=O)[*:3])[C@@H](N[*:1])C(=O)[*:2]; d(γGlu) = O=C(O)[C@@H](CCC(=O)[*:2])N[*:1]; NMeDha = C=C(NC)C(=O)O
Property Name: pIC50
Answer as the number alone; pIC50 is minus log10 of concentration in mol/L.

Sure, the documented pIC50 for O=C1OC(=O)C2C3CCC(O3)C12 (stereo unspecified) is 5.52

# pIC50 (molecule: C[C@@]12C(=O)OC(=O)[C@]1(C)[C@H]1CC[C@@H]2O1 ) is 6.80

C=C1[C@@H](O)[C@@H]2O[C@]3(CC[C@H](/C=C/[C@@H](C)[C@@H]4CC(C)=C[C@@]5(O[C@H](C[C@@](C)(O)C(=O)O)CC[C@H]5O)O4)O3)CC[C@H]2O[C@@H]1[C@@H](O)C[C@H](C)[C@H]1O[C@@]2(CCCCO2)CC[C@H]1C has a reported pIC50 of 10.00

Just so you know, measured pIC50 for C/C=C1/C(=O)N[C@@H](C(=O)O)[C@H](C)C(=O)N[C@@H](CCCNC(=N)N)C(=O)N[C@@H](/C=C/C(C)=C/[C@H](C)[C@H](Cc2ccccc2)OC)[C@H](C)C(=O)N[C@@H](C(=O)O)CCC(=O)N1C came out at 9.52

The recorded pIC50 for entry C[C@@](O)(/C=C/[C@H]1CC=CC(=O)O1)[C@@H](C[C@@H](O)\C=C/C=C\C=C\CO)OP(=O)(O)O equals 8.82

Lab note: C=C1C(=O)N[C@H](C)C(=O)N[C@@H](CC(C)C)C(=O)N[C@@H](C(=O)O)[C@H](C)C(=O)N[C@@H](CCCNC(=N)N)C(=O)N[C@@H](/C=C/C(C)=C/[C@H](C)[C@H](Cc2ccccc2)OC)[C@H](C)C(=O)N[C@@H](C(=O)O)CCC(=O)N1C [MICROCYSTIN-LR] (R[Adda][d(γGlu)][NMeDha][dA]L[dAsp(3S-Me)]-OH; lactam N-7) gave pIC50 of 10.40

* * *

Procedure Text: Cmax in Sprague-Dawley rat at 25 mg/kg, po measured upto 24 hrs by LC-MS/MS method
Type: ADME, organism-based
Stated Conditions: in vivo
Property Name: Cmax (ng/mL)
Express it in ng/mL; write the number only.

Cmax for O=C(O)[C@@H]1[C@H](C(=O)n2ccc3ccccc32)[C@H]2CC[C@@H]1O2 is 11300

* * *

Procedure Text: Aqueous stability of compound assessed as compound remaining measured at 120 mins by HPLC assay
Format: physicochemical
Stated Conditions: aqueous solution, read-out: Stability
Property Name: remaining at 2 h (%)
Give the value in % but do not write % after it.

Entry CN1CCN(C(=O)[C@@H]2[C@H](C(=O)O)[C@H]3CC[C@@H]2O3)CC1 ; remaining at 2 h = 50

* * *

Procedure Text: Aqueous stability of compound assessed as compound remaining measured at 240 mins by HPLC assay
Assay type: physicochemical
Stated Conditions: aqueous solution, read-out: Stability
Record form. Attribute: remaining at 4 h. Fill in for each entry.
Record the value in %, omitting the unit from your answer.

// O=C(O)[C@H]1[C@@H](C(=O)N2Cc3ccccc3C2)[C@@H]2CC[C@H]1O2 : remaining at 4 h value = 46.4

Given item CC1c2ccccc2CN1C(=O)[C@@H]1[C@H](C(=O)O)[C@H]2CC[C@@H]1O2 (some centres undefined) , the value recorded as its remaining at 4 h is 71.8

Per the record, O=C(O)[C@@H]1[C@H](C(=O)N2CC=CC2)[C@H]2CC[C@@H]1O2 has remaining at 4 h of 35.7

Sample CN1CCN(C(=O)[C@@H]2[C@H](C(=O)O)[C@H]3CC[C@@H]2O3)CC1 ; remaining at 4 h observed: 45.6
